Kindly state Protein nitrogen content, increase for each of the entries shown.
Tested on: Soybean
Assay Comment: Total and protein nitrogen content of soybean (Example 39)
Assay type: in vivo
Condition Description: in vivo
Field format: number, assumed %, no unit text.

Check the records and state Protein nitrogen content, increase for NN.Oc1nnc(O)c2ccccc12 [1,4-Dihydroxyphthalazine hydrazine salt]
63.2

Annotate the compound "NN.NN.Oc1nnc(O)c2ccccc12" with its measured Protein nitrogen content, increase.
89.5

Return Protein nitrogen content, increase (reported value) for this compound: "N=C(N)N.N=C(N)N.Oc1nnc(O)c2ccccc12"
105.3

Look up Protein nitrogen content, increase of Oc1nnc(O)c2ccccc12 [1,4-Dihydroxyphthalazine] and report it.
100.0

---

Tested on: leaves of Pinto beans
Assay Comment: Stimulation of carbon dioxide fixation, Pinto beans (Example 21)
Condition Description: A = in the light; zeatin 20, kinetin/benzyladenine 30, others 200 ppm; control 2.14
Criterion: Radioactivity A strictly under 4 dpm/200 mg fresh weight. Met: t. Not met: f.

Confirm or reject: Radioactivity A of "N=C(N)N.Oc1nnc(O)c2ccccc12" lies strictly below 4 dpm/200 mg fresh weight
t

Does "c1ccc(CNc2ncnc3[nH]cnc23)cc1" have Radioactivity A strictly under 4 dpm/200 mg fresh weight?
f

Given the entry "C/C(=C\CNc1ncnc2[nH]cnc12)CO" , would its reported Radioactivity A be below 4 dpm/200 mg fresh weight?
f

Please determine if "N=C(N)N.N=C(N)N.Oc1nnc(O)c2ccccc12" is below 4 dpm/200 mg fresh weight in terms of Radioactivity A.
t

Say whether its Radioactivity A is strictly beneath 4 dpm/200 mg fresh weight. Entry: "c1coc(CNc2ncnc3[nH]cnc23)c1"
f

---

Exercise: state measured Radioactivity of the TCA-insoluble fraction for each of the compounds provided.
Tested on: leaves of Pinto bean
Assay Comment: Protein synthesis, glycine-2-14C incorporation in Pinto bean leaves (Example 19)
Condition Description: 18 hours; zeatin 20 ppm, kinetin/benzyladenine 30 ppm, others 200 ppm; control 3.17

Identify Radioactivity of the TCA-insoluble fraction associated with the compound "C/C(=C\CNc1ncnc2[nH]cnc12)CO"
6.18 1000 dpm/200 mg fresh weight

Supply measured Radioactivity of the TCA-insoluble fraction of "c1ccc(CNc2ncnc3[nH]cnc23)cc1" in your reply.
5.92 1000 dpm/200 mg fresh weight

State its Radioactivity of the TCA-insoluble fraction for this compound: "c1coc(CNc2ncnc3[nH]cnc23)c1"
5.36 1000 dpm/200 mg fresh weight

Supply reported Radioactivity of the TCA-insoluble fraction belonging to this compound: CCC[n+]1c[nH]c2ccccc21.[Br-] [N--(n-Propyl)-benzimidazolium bromide, N-(n-propyl)-benzimidazolium bromide]
4.52 1000 dpm/200 mg fresh weight

---

Test system: leaves of Pinto beans
Assay Comment: Stimulation of carbon dioxide fixation, Pinto beans (Example 21)
Condition Description: zeatin 20, kinetin/benzyladenine 30, others 200 ppm
Procedure: The tests were performed on leaves of Pinto beans. The leaf segments were treated with an endogeneous cytokinin (zeatin), synthetic cytokinins (kinetin, benzyladenine) or with the compositions according to the invention, respectively, by floating the leaf segments on the solution of the test substance for 18 hours, thereafter the leaf segments were exposed to labelled carbon dioxide (activity: 100 μCi/5000 ml of ^14 CO2) for 0.5 hours.
Measured Metric: Stimulation

Provide Stimulation value for the following compound: "N=C(N)N.N=C(N)N.Oc1nnc(O)c2ccccc12"
59.3%

Return value of Stimulation for input "C/C(=C\CNc1ncnc2[nH]cnc12)CO" , no commentary.
140.8%

Fill in reported Stimulation for this entry: "N=C(N)N.Oc1nnc(O)c2ccccc12"
50.7%

Identify Stimulation associated with the compound "c1ccc(CNc2ncnc3[nH]cnc23)cc1"
128.0%

Let me know recorded Stimulation for "c1coc(CNc2ncnc3[nH]cnc23)c1" , thanks.
95.2%

Please give the documented Stimulation of CCC[n+]1c[nH]c2ccccc21.[Br-] [N--(n-Propyl)-benzimidazolium bromide, N-(n-propyl)-benzimidazolium bromide]
84.0%
